Values were extracted from patent US9278118B2.

Here, each record is paired with measured pIC50 data.
system: SW948 cells; assay: Cell viability (MTS) assay, P15 pre-treatment on intrinsic drug-refractory tumor cells; format: cell-based, human; settings: Homo sapiens, P15 pre-treatment, read-out: IC50, Cytostatic drug + P15 pre-treatment
pIC50: −log10 of the molar value.
MEASURE NAME: pIC50

{"SUBSTANCE SMILES": "COc1cccc2c1C(=O)c1c(O)c3c(c(O)c1C2=O)C[C@@](O)(C(=O)CO)C[C@@H]3O[C@H]1C[C@H](N)[C@H](O)[C@H](C)O1", "VALUE MEASURED": 3.49}
{"SUBSTANCE SMILES": "CC(=O)O[C@H]1C(=O)[C@@]2(C)[C@H]([C@H](OC(=O)c3ccccc3)[C@]3(O)C[C@H](OC(=O)[C@H](O)[C@@H](NC(=O)c4ccccc4)c4ccccc4)C(C)=C1C3(C)C)[C@]1(OC(C)=O)CO[C@@H]1C[C@@H]2O", "VALUE MEASURED": 4.01}
